target: cloned human NR1/NR2B ion channels (Homo sapiens (Human), UniProt Q05586+Q13224); assay: HNR2BC: effects of test articles on cloned human NR1/NR2B ion channels expressed in mammalian cells (FLIPR calcium flux); type: cell-based; conditions: cloned human NR1/NR2B, Table 5
Sequence (Q13224 27-1484, other chains not shown): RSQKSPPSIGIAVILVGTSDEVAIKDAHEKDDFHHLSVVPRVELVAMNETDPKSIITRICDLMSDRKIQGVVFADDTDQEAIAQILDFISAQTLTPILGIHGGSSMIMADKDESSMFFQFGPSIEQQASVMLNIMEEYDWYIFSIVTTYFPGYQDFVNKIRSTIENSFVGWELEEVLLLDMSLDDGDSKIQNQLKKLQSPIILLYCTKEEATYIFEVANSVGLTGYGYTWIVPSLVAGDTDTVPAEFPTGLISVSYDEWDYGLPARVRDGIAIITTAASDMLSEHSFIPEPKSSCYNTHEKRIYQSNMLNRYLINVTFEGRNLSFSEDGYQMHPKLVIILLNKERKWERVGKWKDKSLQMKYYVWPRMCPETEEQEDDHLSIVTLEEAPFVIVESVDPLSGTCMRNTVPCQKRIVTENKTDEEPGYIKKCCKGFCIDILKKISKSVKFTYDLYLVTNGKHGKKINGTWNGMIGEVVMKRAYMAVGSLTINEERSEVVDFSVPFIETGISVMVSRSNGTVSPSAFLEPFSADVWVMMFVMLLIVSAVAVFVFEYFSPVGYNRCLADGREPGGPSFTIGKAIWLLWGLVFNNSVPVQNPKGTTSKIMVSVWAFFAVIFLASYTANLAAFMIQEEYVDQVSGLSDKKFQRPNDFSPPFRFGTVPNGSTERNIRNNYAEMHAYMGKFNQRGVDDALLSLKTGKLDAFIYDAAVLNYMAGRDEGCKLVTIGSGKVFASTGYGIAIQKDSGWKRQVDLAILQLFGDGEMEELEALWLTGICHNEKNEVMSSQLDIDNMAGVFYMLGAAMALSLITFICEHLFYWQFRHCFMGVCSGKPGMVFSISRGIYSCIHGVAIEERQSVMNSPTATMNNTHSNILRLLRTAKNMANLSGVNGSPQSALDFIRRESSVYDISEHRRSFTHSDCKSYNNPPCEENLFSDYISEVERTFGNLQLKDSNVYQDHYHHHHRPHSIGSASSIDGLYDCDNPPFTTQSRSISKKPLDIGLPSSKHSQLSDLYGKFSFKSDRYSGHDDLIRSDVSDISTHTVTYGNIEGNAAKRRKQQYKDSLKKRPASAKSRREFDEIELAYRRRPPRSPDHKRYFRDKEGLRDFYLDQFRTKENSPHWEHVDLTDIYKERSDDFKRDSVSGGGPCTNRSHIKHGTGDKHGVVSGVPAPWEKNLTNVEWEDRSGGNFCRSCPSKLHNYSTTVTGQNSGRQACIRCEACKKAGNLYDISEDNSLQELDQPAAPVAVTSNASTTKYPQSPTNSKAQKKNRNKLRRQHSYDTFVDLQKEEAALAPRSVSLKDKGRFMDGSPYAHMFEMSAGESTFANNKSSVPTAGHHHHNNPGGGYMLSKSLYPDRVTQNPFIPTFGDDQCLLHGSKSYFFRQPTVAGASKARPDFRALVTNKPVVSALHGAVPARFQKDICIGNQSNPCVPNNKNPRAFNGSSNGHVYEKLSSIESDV
Counter-ions that a name gives are not always drawn.
Categorized via IC50: bin A: < 60 nM; bin B: ≥ 60 nM and < 300 nM; bin C: ≥ 300 nM

Example results:
# bin label for "O=C(Cn1cc(Cl)c2ncc(-c3cccc(C(F)(F)F)c3)cc21)N1CC(F)C1"
bin C

# bin label for O=C(Cn1ccc2ncc(-c3cccc(C(F)(F)F)c3)cc21)N1CC(F)(F)C1 [Example 260, trifluoroacetate salt]
bin A

# bin label for "Cc1cc(-c2cnc3c(Cl)cn(CC(=O)N4CCC4)c3c2)ccc1F"
bin A

***
# bin label for Cc1cc(-c2cnc3ccn(CC(=O)N4CC5CC5C4)c3c2)ccc1F (racemic) [Example 189, trifluoroacetate salt]
bin B

# bin label for CC(C)C(O)Cn1ccc2ncc(-c3cc(F)cc(F)c3)cc21 (racemic)
bin A

# bin label for "CC(C)C(=O)Cn1cc(F)c2ncc(-c3ccc(Cl)s3)cc21"
bin A

# bin label for "CCC(=O)Cn1cc(F)c2ncc(-c3cccc(C(F)F)c3)cc21"
bin A

# bin label for Cc1cc(-c2cnc3ccn(CC(=O)N4CCC(O)CC4)c3c2)ccc1F [Example 188, trifluoroacetate salt]
bin A

# bin label for "CN(C)C(=O)Cn1cc(Cl)c2ncc(-c3cc(F)cc(F)c3)cc21"
bin A

# bin label for "O=C(Cn1ccc2ncc(-c3ccc(F)c(C(F)(F)F)c3)cc21)N1CC(F)(F)C1"
bin C

----------
target: cloned human NR1/NR2B ion channels (Homo sapiens (Human), UniProt Q05586+Q13224); assay: HNR2BC: effects of test articles on cloned human NR1/NR2B ion channels expressed in mammalian cells (FLIPR calcium flux); format: cell-based; details: cloned human NR1/NR2B ion channels, Table 5
pIC50: −log10 of the molar value. Where a name gives a salt, the structure may show the parent alone.
Is pIC50 at least 7? Then MET. If not, NOT MET.

Example results:
Does the compound "Cc1cn(CC(=O)N2CCC2)c2cc(-c3ccc(F)c(F)c3F)cnc12" have recorded pIC50 that is 7 or more?
MET

Does the compound "Cc1cccc(-c2cnc3ccn(CC(=O)N4CCC4)c3c2)c1F" have recorded pIC50 that is 7 or more?
MET

Does the compound O=C(Cn1cc(F)c2ncc(-c3cc(Cl)cs3)cc21)N1CCC1 [Example 397, trifluoroacetate salt] have recorded pIC50 that is 7 or more?
MET

Does the compound "Cc1cn(CC(=O)N2CCCC2)c2cc(-c3cccc(C(F)(F)F)c3F)cnc12" have recorded pIC50 that is 7 or more?
NOT MET

***
Does the compound "Cc1csc(-c2cnc3ccn(CC(=O)N4CC(F)(F)C4)c3c2)c1" have recorded pIC50 that is 7 or more?
MET

Does the compound "CCc1ccc(-c2cnc3c(F)cn(CC(=O)N4CCC4)c3c2)s1" have recorded pIC50 that is 7 or more?
NOT MET

Does the compound "CN(C)C(=O)Cn1cc(F)c2ncc(-c3ccccc3F)cc21" have recorded pIC50 that is 7 or more?
MET

----------
target: cloned human NR1/NR2B ion channels (Homo sapiens (Human), UniProt Q05586+Q13224); experiment: HNR2BC: effects of test articles on cloned human NR1/NR2B ion channels expressed in mammalian cells (FLIPR calcium flux); assay type: cell-based; details: cloned human NR1/NR2B, Table 5
Where a name gives a salt, the structure may show the parent alone.
Measured IC50, listed per entry.
Please state the figure in nM; there is no need to write the unit.

Consider the worked cases shown below.
Item under review: O=C(Cn1ccc2ncc(-c3ccc(F)c(F)c3F)cc21)N1CCCC1 [Example 120] . Reported IC50?
631

Item under review: O=C(Cn1cc(Cl)c2ncc(-c3ccc(F)c(F)c3)cc21)N1CCC1 [Example 29] . Reported IC50?
20

Item under review: Cc1cc(-c2cnc3ccn(C/C(=N/O)C4CC4)c3c2)ccc1F [Example 286, trifluoroacetate salt] . Reported IC50?
158

Note: attention shifts to another entry.
Item under review: N#Cc1ccc(-c2cnc3ccn(CC(=O)N4CCC4)c3c2)cn1 [Example 113] . Reported IC50?
5010
